# Tested on: TK-10
# Assay Overview: NCI tumour cell line growth inhibition, 48 h
Structures can show the parent of a compound that is named as a salt. The source made the active and inactive calls. No stated cut-off is given here; in the data, active = GI50 up to about 1.1 µM and inactive = higher.
Form entry, call: pick from 1 (active), 0 (inactive)

For orientation, consider the following solved cases.
| Compound | Classification |
| --- | --- |
| CCC1(N=[N+]=[N-])C(=O)c2ccccc2N(c2ccccc2)C1=O (centres undefined) | 0 |
| NC(CCC(=O)O)C(=O)N1CCN(c2nc(N3CCCC3)c3nc(Cl)c(NCc4ccccc4)nc3n2)CC1 (centres undefined) | 0 |
| CC1=C(C(=O)Nc2c(C)cccc2C)C(c2ccccc2Cl)C(C(=O)Nc2c(C)cccc2C)=C(C)N1 | 0 |
| Cc1cc2c(cc1C)C(=O)/C(=N/Nc1ccc(F)cc1)CCO2 | 0 |
| NCCSC(c1ccccc1)c1ccccc1 | 0 |
| CC(C)(C)C1=C(Br)C(OC(=O)C(F)(F)F)(C(C)(C)C)OP1(=O)c1ccccc1 (centres undefined) | 0 |

## Input For this compound, state the assay outcome: `S=c1c2cn[nH]c2nc2scc(-c3ccc(Cl)cc3)n12`
## Output 0

## Input Per the records of this test, what outcome belongs to `COc1ccc(/C=C/C(=O)c2ccccc2)cc1OC` ?
## Output 0

## Input Outcome logged for `COc1c(OC(C)=O)ccc(/C=C2\N=C(C)OC2=O)c1[N+](=O)[O-]` in this assay:
## Output 0

## Input Recorded call for `O=C(N=C1N(c2ccccc2)C(=O)C(=O)N1c1ccccc1)c1ccccc1` ?
## Output 0

## Input Hey, what did the test say about O=C1c2c(O)ccc(O)c2C(=O)c2c(NCCNCCO)ccc(NCCNCCO)c21 [MITOXANTRONE HYDROCHLORIDE] ?
## Output 1

## Input What was the test verdict on `Nc1ccccc1-c1noc(=O)[nH]1` ?
## Output 0
